# Tested on: UO-31
# EXPERIMENTAL_DETAILS: NCI tumour cell line growth inhibition, 48 h
Active and inactive are the calls of the source. Rule as the data show it: active = GI50 up to about 1.1 µM and inactive = higher.
MEASURED_QUANTITY: GI50

# count of solved cases: 3
MOLECULE: Cc1nc2c(N3CCCC3)nc(N3CCNCC3)nc2nc1NCc1ccccc1
REPORTED_RESULT: 2.41 µM (inactive)
--
MOLECULE: C=C1CC2C(=O)N(c3ccccc3)C(=O)C2CC1n1[nH]c(=O)n(Cc2ccccc2)c1=O (centres undefined)
REPORTED_RESULT: > 100 µM (inactive)
--
MOLECULE: CC(=O)NNc1nc(C)c(C(/C=C/c2ccc3c(c2)OCO3)=N/NC(=O)c2ccncc2)s1
REPORTED_RESULT: > 100 µM (inactive)

Batch request: GI50 per item, same order as input.
1. CC1(C)CCC(=O)c2c(O)ccc(O)c21
2. COc1ccc(OC)c(NC(=O)C(=O)C(C(=O)c2ccccc2F)C2OC(=O)c3ccccc32)c1 (centres undefined)
3. C/C(=N\[N+](C)(C)C)C(c1ccccc1)C1(c2ccccc2)C(c2ccccc2)=C1c1ccccc1 (centres undefined)
4. COc1c2c(cc3c1-c1c(cc4c(c1OC)OCO4)C1OC3C(C)C1C)OCO2.COc1cc2c(c(OC)c1OC)-c1c(cc3c(c1OC)OCO3)C1OC2C(C)C1C (centres undefined)
5. O=C1/C(=C/c2ccc(Cl)cc2)CCCc2ccccc21
6. CNC(=O)N(CCCC(NC(C)=O)C(=O)NCc1ccccc1)Cc1ccccc1 (centres undefined)

Result ::
1. > 100 µM (inactive)
2. 50.6 µM (inactive)
3. 53.1 µM (inactive)
4. 94.8 µM (inactive)
5. 18.3 µM (inactive)
6. > 100 µM (inactive)

----------
# Tested on: SR
# EXPERIMENTAL_DETAILS: NCI tumour cell line growth inhibition, 48 h
Calls of active or inactive are those of the source. Rule as the data show it: active = GI50 up to about 1.1 µM and inactive = higher.
Outcomes you can answer with include only these: active, inactive

Query :: What did the test return for Nc1ccn([C@@H]2C=C(CO)[C@@H](O)[C@H]2O)c(=O)n1 ?
Result :: active

Query :: Per the records of this test, what outcome belongs to C#CCNC(Cc1ccccc1)C(=O)O (centres undefined) ?
Result :: inactive

Query :: Name the outcome recorded for CS(=O)(=O)ON1C(=O)c2ccc(N)cc2C1=O in the assay.
Result :: inactive

Query :: Dear all, I need the recorded test outcome for COc1ccc2c(c1)c(=O)c1c(NCCN(C)C)ccc3nnn2c31 , thank you.
Result :: active

Query :: I'd appreciate the recorded outcome for CCCCc1ccc(N2C(=O)c3cccnc3S2(=O)=O)cc1 from this test.
Result :: inactive

Query :: Record lookup: outcome of this test for O=S(=O)(c1ccccc1)C(c1ccc2ccccc2n1)S(=O)(=O)c1ccccc1 ?
Result :: inactive

Query :: Record request — test call for COc1cccc(C2c3cc4c(cc3OC(NNc3ccccc3)C2C)OCO4)c1OC (centres undefined)
Result :: active

Query :: Hello, I am checking results. What call was entered for O=C(O)CSc1ccccc1C(=O)O ?
Result :: inactive

Query :: Assay result, entry N#Cc1c(N2CCCC2)ncn(Cc2ccccc2)c1=O — outcome?
Result :: inactive

----------
# Tested on: BT-549
# EXPERIMENTAL_DETAILS: NCI tumour cell line growth inhibition, 48 h
The source made the active and inactive calls. Rule as the data show it: active = GI50 up to about 1.1 µM and inactive = higher.
Record form. Attribute: GI50. Fill in for each entry.

// known answers, use as guide
COMPOUND: c1ccc2/c3[nH]/c(c2c1)=N\c1ccc(cc1)-c1nc2cc(ccc2o1)/N=c1/[nH]/c(c2ccccc12)=N/c1ccc2nc(oc2c1)-c1ccc(cc1)\N=3
GI50: > 100 µM (inactive)
--
COMPOUND: O=C(CNc1ccc(Cl)cc1)Nn1c(-c2ccccc2)nc2ccccc2c1=O
GI50: 2.32 µM (inactive)

Give GI50 for each listed item.
1. COc1c2c(cc3c1-c1c(cc4c(c1OC)OCO4)C1OC3C(C)C1C)OCO2.COc1cc2c(c(OC)c1OC)-c1c(cc3c(c1OC)OCO3)C1OC2C(C)C1C (stereo not given)
2. [N-]=[N+]=NC1C(O)C(CO)OC1n1cnc2c(N)ncnc21 (stereo not given)
3. Cc1c(-c2ccccc2)c(C#N)c2nnn(C3CCCCC3)c(=O)n12
4. COC(=O)c1c(O)c2c(c3c1OC(C)(C)CC3)OC(C)(C)CC2
5. CCCC(=O)Nc1ncnc2c1ncn2C1OC2COP(=O)(O)OC2C1OC(=O)CCC (stereo not given)

Result ::
1. 61.2 µM (inactive)
2. 54.8 µM (inactive)
3. > 100 µM (inactive)
4. 20 µM (inactive)
5. > 1000 µM (inactive)

Quick batch: GI50 for everything below.
1. COc1ccc(\N=C/C=C/C(=C/COC(C)=O)OC(C)=O)cc1
2. O=[N+]([O-])c1ccc(C[S+]([O-])Cc2ccccc2)cc1 (stereo not given)
3. Cc1nc2c(=O)n(-c3ccccc3)c3ccccc3c2o1

Result ::
["33.3 µM (inactive)", "> 100 µM (inactive)", "> 100 µM (inactive)"]

----------
# Tested on: HOP-92
# EXPERIMENTAL_DETAILS: NCI tumour cell line growth inhibition, 48 h
Active and inactive are the calls of the source. Cut-off read from the data, not from the text of the source: active = GI50 up to about 1.1 µM and inactive = higher.
Give one outcome, nothing more. List: Y (active), N (inactive)

COMPOUND: CC(=O)OC1COC(Nn2c(=O)[nH]c3ccccc3c2=O)C(OC(C)=O)C1OC(C)=O (centres undefined)
CAT: N
--
COMPOUND: C#CC(O)/C=C/C(O)CCCC(O)CC#CC(O)C#CC(O)CCCC(O)/C=C/CCCCCC(=O)CCCCCCCCCCCCCC(O)C(O)C#CC(=O)O (centres undefined)
CAT: N
--
COMPOUND: N#C/C(=C\NC(=S)c1ccncc1)c1nc2ccccc2s1
CAT: N
--
COMPOUND: CC1(C)O[C@@H]2[C@@H](COC(=O)c3ccccc3)C[C@@H](C#N)[C@@H]2O1
CAT: N
--
COMPOUND: O=C(Oc1ccccc1)c1cc2cc(CCl)ccc2oc1=O
CAT: N
--
COMPOUND: COc1cc2c(cc1OCCCOc1cc(-c3ccc(F)cc3)nc(C)n1)N=C[C@@H]1CCCN1C2=O
CAT: N
--
COMPOUND: CCOC(=O)C(=[N+]=[N-])C(=O)CN1C(=O)c2ccccc2C1=O
CAT: N
--
COMPOUND: CC(=N/NC(=S)N(C)C)/C(=N\NC(=S)N(C)C)c1ccccc1
CAT: N
--
COMPOUND: COc1ccc(/C=C2\CCC(C)C3=C2N=c2s/c(=C/c4cccc(Br)c4)c(=O)n2C3c2ccc(OC)c(OC)c2)cc1OC (centres undefined)
CAT: N
--
COMPOUND: C=C(OC1C(C)=C2C(C1OC(=O)CCCCCCC)C(C)(OC(C)=O)CC(OC(=O)CCC)C1(O)C2OC(=O)C1(C)O)/C(C)=C/C (centres undefined)
CAT: Y

Query :: Recorded call for CC1(C)CCC(=O)c2c(O)ccc(O)c21 ?
Result :: N

----------
# Tested on: UACC-257
# EXPERIMENTAL_DETAILS: NCI tumour cell line growth inhibition, 48 h
Active and inactive are the calls of the source. Rule as the data show it: active = GI50 up to about 1.1 µM and inactive = higher.
A correct response names exactly one class from t = active, f = inactive

These solved cases illustrate the format of a correct answer.
COMPOUND: NC(=O)c1ccc(/N=N/O)nc1
CAT: f
//
COMPOUND: c1ccc2c3c([nH]c2c1)[C@H]1C2CCCCN2CN1CC3 (stereo partly drawn)
CAT: f
//
COMPOUND: O=[N+]([O-])c1ccc(S(=O)(=O)Cc2ccccc2)c([N+](=O)[O-])c1
CAT: f

Query :: Write down the call the test reported for this compound. Item: COc1ccc(-c2oc3cc(O)c(OC)c(O)c3c(=O)c2O)cc1
Result :: f

Query :: # lookup: test call for CC(NS(=O)(=O)c1ccc(Cl)cc1)C(=O)O (stereo not drawn)
Result :: f

Query :: Tell me the assay call for N#Cc1cccc(-n2[nH]c(=O)ccc2=O)c1 please.
Result :: f

Query :: # outcome recorded in this test, key = CC(=O)Nc1nc(O)c2nc(C=O)cnc2n1
Result :: f

Query :: Per the assay record, what outcome was assigned to O=C(NC(=O)c1ccccc1[N+](=O)[O-])Nc1ccc(Oc2ncc(Cl)cn2)c([N+](=O)[O-])c1 ?
Result :: t

----------
# System: MOLT-4
# EXPERIMENTAL_DETAILS: NCI tumour cell line growth inhibition, 48 h
Calls of active or inactive are those of the source. No stated cut-off is given here; in the data, active = GI50 up to about 1.1 µM and inactive = higher.
Your response should consist of one outcome taken from true = active, false = inactive

COMPOUND: NC(=O)C/C=C/CC(N)=O
TARGET_UNDER_TEST: MOLT-4
CAT: true

Query :: Record request — test call for O=C(N(O)c1ccccc1Cl)C(O)(c1ccccc1)c1ccccc1
Result :: false

Query :: Test call, this compound: CC1=C2c3ccccc3N(S(=O)(=O)c3ccccc3)[C@H]2[C@H](C(=O)N2C3CC4CC[C@@]3(CS2(=O)=O)C4(C)C)CC1 (stereo partly specified)
Result :: false
